target: UniProt Q9Y6L6
conditionContext: 20 nmol/l [3H]-ES; concentrations up to 100 µmol/l
Counter-ions that a name gives are not always drawn.
readoutKind: Inhibition of OATP1B1-mediated uptake of ES (in words)

compound | testResult
N[C@@H](Cc1cc(I)c(Oc2cc(I)c(O)c(I)c2)c(I)c1)C(=O)O | inhibited
O=C(O)[C@H]1O[C@@H](OC(=O)[C@H](c2ccccc2Cl)N2CCc3sccc3C2)[C@H](O)[C@@H](O)[C@@H]1O [Clopidogrel acyl glucuronide, clopidogrel acyl glucuronide] | inhibited
CS(=O)(=O)c1ccc(C2=C(c3ccccc3)C(=O)OC2)cc1 | inhibited
Cc1c(OCC(F)(F)F)ccnc1C[S+]([O-])c1nc2ccccc2[nH]1 (stereo not shown) | did not inhibit
COC(=O)[C@H](c1ccccc1Cl)N1CCc2sccc2C1 [Clopidogrel, Clopidogrel hydrogen sulfate] | inhibited
CCc1ccc(CCOc2ccc(CC3SC(=O)NC3=O)cc2)nc1 (stereo not shown) [Pioglitazone, pioglitazone hydrochloride] | inhibited
CCCCC1=NC2(CCCC2)C(=O)N1Cc1ccc(-c2ccccc2-c2nnn[nH]2)cc1 | did not inhibit

---

target: OATP1B1 (Homo sapiens, UniProt Q9Y6L6)
Sequence (Q9Y6L6 1-691): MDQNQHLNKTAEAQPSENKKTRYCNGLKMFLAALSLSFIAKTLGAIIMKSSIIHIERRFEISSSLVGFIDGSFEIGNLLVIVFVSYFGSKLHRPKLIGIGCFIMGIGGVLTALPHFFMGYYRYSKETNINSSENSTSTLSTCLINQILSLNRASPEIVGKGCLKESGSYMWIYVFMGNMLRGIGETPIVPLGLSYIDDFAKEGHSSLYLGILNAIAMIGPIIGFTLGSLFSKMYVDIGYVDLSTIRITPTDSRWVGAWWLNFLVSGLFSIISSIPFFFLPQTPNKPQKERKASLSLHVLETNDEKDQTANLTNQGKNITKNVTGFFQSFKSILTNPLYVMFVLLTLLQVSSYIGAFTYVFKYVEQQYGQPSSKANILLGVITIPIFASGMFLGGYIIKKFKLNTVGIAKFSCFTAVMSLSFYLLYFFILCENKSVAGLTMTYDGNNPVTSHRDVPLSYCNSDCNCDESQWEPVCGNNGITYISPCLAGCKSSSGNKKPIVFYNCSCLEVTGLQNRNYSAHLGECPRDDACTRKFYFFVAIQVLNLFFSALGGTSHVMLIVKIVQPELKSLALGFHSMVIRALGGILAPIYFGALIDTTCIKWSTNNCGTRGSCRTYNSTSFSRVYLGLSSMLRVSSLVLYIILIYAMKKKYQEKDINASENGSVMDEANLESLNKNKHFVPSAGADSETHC
protocolText: Prediction of clinical drug-drug interactions
conditionContext: R=1+fu×Iin,max/IC50, ES as substrate; oral dose listed per drug in Table 3
Where a name gives a salt, the structure may show the parent alone.
Measured R (ES) by item

molecule | target | R (ES)
N[C@@H](Cc1cc(I)c(Oc2cc(I)c(O)c(I)c2)c(I)c1)C(=O)O | OATP1B1 (Homo sapiens, UniProt Q9Y6L6) | 1.00
CO[C@H]1/C=C/O[C@@]2(C)Oc3c(C)c(O)c4c(O)c(c(/C=N/N5CCN(C)CC5)c(O)c4c3C2=O)NC(=O)/C(C)=C\C=C\[C@H](C)[C@H](O)[C@@H](C)[C@@H](O)[C@@H](C)[C@H](OC(C)=O)[C@@H]1C | OATP1B1 (Homo sapiens, UniProt Q9Y6L6) | 8.56
CS(=O)(=O)c1ccc(C2=C(c3ccccc3)C(=O)OC2)cc1 | OATP1B1 (Homo sapiens, UniProt Q9Y6L6) | 1.15
CC(C)(O)c1ccccc1CC[C@@H](SCC1(CC(=O)O)CC1)c1cccc(/C=C/c2ccc3ccc(Cl)cc3n2)c1 [Montelukast, montelukast sodium] | OATP1B1 (Homo sapiens, UniProt Q9Y6L6) | 1.01
CCc1ccc(CCOc2ccc(CC3SC(=O)NC3=O)cc2)nc1 (centres unmarked) [Pioglitazone, pioglitazone hydrochloride] | OATP1B1 (Homo sapiens, UniProt Q9Y6L6) | 1.01

---

target: OATP1B1 (Homo sapiens, UniProt Q9Y6L6)
Counter-ions that a name gives are not always drawn.
API: label(entry) gives True if the entry's IC50 is strictly smaller than 4 µM; on equality or larger values it gives False.

compound | label
COC(=O)[C@H](c1ccccc1Cl)N1CCC2SC(=O)C=C2C1 (some centres unmarked) | False
CC(C)(O)c1ccccc1CC[C@@H](SCC1(CC(=O)O)CC1)c1cccc(/C=C/c2ccc3ccc(Cl)cc3n2)c1 [Montelukast, montelukast sodium] | True
N[C@@H](Cc1cc(I)c(Oc2cc(I)c(O)c(I)c2)c(I)c1)C(=O)O | True
CCOC(=O)C1=C(COCCN)NC(C)=C(C(=O)OC)C1c1ccccc1Cl (centres unmarked) | False
CN(CCOc1ccc(CC2SC(=O)NC2=O)cc1)c1ccccn1 (centres unmarked) [Rosiglitazone, Rosiglitazone-potassium salt] | False
CS(=O)(=O)c1ccc(C2=C(c3ccccc3)C(=O)OC2)cc1 | False
CCc1ccc(CCOc2ccc(CC3SC(=O)NC3=O)cc2)nc1 (centres unmarked) [Pioglitazone, pioglitazone hydrochloride] | False
CO[C@H]1/C=C/O[C@@]2(C)Oc3c(C)c(O)c4c(O)c(c(/C=N/N5CCN(C)CC5)c(O)c4c3C2=O)NC(=O)/C(C)=C\C=C\[C@H](C)[C@H](O)[C@@H](C)[C@@H](O)[C@@H](C)[C@H](OC(C)=O)[C@@H]1C | True

---

Measured pIC50 by item
Target sequence: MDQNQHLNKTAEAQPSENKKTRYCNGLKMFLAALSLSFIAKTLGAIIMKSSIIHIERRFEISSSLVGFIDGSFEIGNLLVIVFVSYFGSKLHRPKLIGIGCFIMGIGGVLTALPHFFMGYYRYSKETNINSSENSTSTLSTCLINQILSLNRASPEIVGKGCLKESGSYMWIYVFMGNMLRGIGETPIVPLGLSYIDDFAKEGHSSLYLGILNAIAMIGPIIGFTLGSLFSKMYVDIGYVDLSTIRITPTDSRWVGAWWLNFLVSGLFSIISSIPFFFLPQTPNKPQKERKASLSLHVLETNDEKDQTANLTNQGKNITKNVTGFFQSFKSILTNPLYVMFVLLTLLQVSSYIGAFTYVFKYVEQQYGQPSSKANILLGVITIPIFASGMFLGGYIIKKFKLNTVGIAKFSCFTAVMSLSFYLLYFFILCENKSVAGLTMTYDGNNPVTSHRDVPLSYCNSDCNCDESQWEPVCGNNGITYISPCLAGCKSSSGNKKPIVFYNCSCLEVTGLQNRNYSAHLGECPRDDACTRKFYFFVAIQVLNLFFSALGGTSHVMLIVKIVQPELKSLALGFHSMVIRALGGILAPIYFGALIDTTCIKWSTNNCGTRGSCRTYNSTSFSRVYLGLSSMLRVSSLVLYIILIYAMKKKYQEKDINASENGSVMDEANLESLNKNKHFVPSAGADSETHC
pIC50: −log10 of the molar value. Structures can show the parent of a compound that is named as a salt.
readoutKind: pIC50

compound | readoutKind | testResult
CO[C@H]1/C=C/O[C@@]2(C)Oc3c(C)c(O)c4c(O)c(c(/C=N/N5CCN(C)CC5)c(O)c4c3C2=O)NC(=O)/C(C)=C\C=C\[C@H](C)[C@H](O)[C@@H](C)[C@@H](O)[C@@H](C)[C@H](OC(C)=O)[C@@H]1C | pIC50 | 5.25
COC(=O)[C@H](c1ccccc1Cl)N1CCC2SC(=O)C=C2C1 (stereo partly drawn) | pIC50 | 5.09
CC(C)(O)c1ccccc1CC[C@@H](SCC1(CC(=O)O)CC1)c1cccc(/C=C/c2ccc3ccc(Cl)cc3n2)c1 [Montelukast, montelukast sodium] | pIC50 | 5.69
CCc1ccc(CCOc2ccc(CC3SC(=O)NC3=O)cc2)nc1 (stereo not drawn) [Pioglitazone, pioglitazone hydrochloride] | pIC50 | 4.40
CS(=O)(=O)c1ccc(C2=C(c3ccccc3)C(=O)OC2)cc1 | pIC50 | 5.93
CCOC(=O)C1=C(COCCN)NC(C)=C(C(=O)OC)C1c1ccccc1Cl (stereo not drawn) | pIC50 | 4.45

---

target: OATP1B1 (Homo sapiens, UniProt Q9Y6L6)
conditionContext: human, probe [3H]-estrone-3-sulfate, 20 nmol/l
Structures can show the parent of a compound that is named as a salt.
readoutKind: IC50 at 5 min

compound | readoutKind | testResult
COC(=O)[C@H](c1ccccc1Cl)N1CCc2sccc2C1 [Clopidogrel, Clopidogrel hydrogen sulfate] | IC50 at 5 min | > 100 µM

---

target: OATP1B1 (Homo sapiens)
conditionContext: 5 nmol/l [3H]-CER; concentrations up to 100 µmol/l
Structures can show the parent of a compound that is named as a salt.
readoutKind: Inhibition of OATP1B1-mediated uptake of cerivastatin (in words)

compound | target | testResult
CS(=O)(=O)c1ccc(C2=C(c3ccccc3)C(=O)OC2)cc1 [Rofecoxib, rofecoxib] | OATP1B1 (Homo sapiens) | inhibited
COC(=O)[C@H](c1ccccc1Cl)N1CCC2SC(=O)C=C2C1 (stereo partly shown) [2-Oxo clopidogrel, 2-oxo clopidogrel] | OATP1B1 (Homo sapiens) | inhibited
N[C@@H](Cc1cc(I)c(Oc2cc(I)c(O)c(I)c2)c(I)c1)C(=O)O [Levothyroxine, levothyroxine] | OATP1B1 (Homo sapiens) | inhibited
Cc1ccc(-c2cc(C(F)(F)F)nn2-c2ccc(S(N)(=O)=O)cc2)cc1 [Celecoxib, celecoxib] | OATP1B1 (Homo sapiens) | did not inhibit
CCCCC1=NC2(CCCC2)C(=O)N1Cc1ccc(-c2ccccc2-c2nnn[nH]2)cc1 [irbesartan, Irbesartan] | OATP1B1 (Homo sapiens) | did not inhibit
COC(=O)[C@H](c1ccccc1Cl)N1CCc2sccc2C1 [Clopidogrel, Clopidogrel hydrogen sulfate] | OATP1B1 (Homo sapiens) | inhibited
O=C(O)[C@H]1O[C@@H](OC(=O)[C@H](c2ccccc2Cl)N2CCc3sccc3C2)[C@H](O)[C@@H](O)[C@@H]1O [Clopidogrel acyl glucuronide, clopidogrel acyl glucuronide] | OATP1B1 (Homo sapiens) | inhibited
